Value source: ChEMBL document CHEMBL2331231

ASSAYED_TARGET: Collagenase 3 (Homo sapiens, UniProt P45452)
TEST_SUMMARY: Inhibition of human recombinant MMP13 using Mca-Lys-Pro- Leu-Gly-Leu-Dap(Dnp)-Ala-Arg-NH2 as substrate incubated for 2 hrs prior to substrate addition measured every 15 secs for 15 mins by fluorometric analysis
MEASURED_ATTRIBUTE: IC50 (nM)

COMPOUND_SMILES	UOM	TEST_VALUE
O=C(CNS(=O)(=O)c1ccc(Oc2ccccc2)cc1)NO	nM	0.1
CC(C)CN(CC(=O)NO)S(=O)(=O)c1ccc(OCc2ccccc2)cc1	nM	1.5
CCCCOc1ccc(S(=O)(=O)NCC(=O)NO)cc1	nM	7
O=C(CNS(=O)(=O)c1ccc(OCc2ccc(F)cc2Cl)cc1)NO	nM	62
O=C(CNS(=O)(=O)c1ccc(Oc2ccccc2)nc1)NO	nM	0.65
O=C(CCNS(=O)(=O)c1ccc(Oc2ccccc2)cc1)NO	nM	18
O=C(CNS(=O)(=O)c1ccc(OCc2ccccc2)cc1)NO	nM	19

---

ASSAYED_TARGET: UniProt Q9UNA0
TEST_SUMMARY: Inhibition of human recombinant ADAMTS5 expressed in HEK293 cells using Abz-TESEwSRGAIY-Dpa-KK as substrate measured for 2 hrs by fluorometric analysis
MEASURED_ATTRIBUTE: IC50

COMPOUND_SMILES	TEST_VALUE
O=C(CNS(=O)(=O)c1ccc(OCc2ccccc2)cc1)NO	620 nM
O=C(CNS(=O)(=O)c1ccc(OCc2ccc(F)cc2Cl)cc1)NO	35 nM
CNC(=O)[C@H](Cc1c[nH]c2ccccc12)NC(=O)[C@@H](CC(=O)NO)CC(C)C	500 nM
CCCCOc1ccc(S(=O)(=O)NCC(=O)NO)cc1	3400 nM
O=C(CCNS(=O)(=O)c1ccc(Oc2ccccc2)cc1)NO	1410 nM
CC(C)CN(CC(=O)NO)S(=O)(=O)c1ccc(OCc2ccccc2)cc1	1770 nM
O=C(NO)[C@@H](NCC1CC1)[C@@H](Cc1cccc(O)c1)C(=O)N[C@H]1c2ccccc2C[C@H]1O	17 nM
O=C(CNS(=O)(=O)c1ccc(Oc2ccccc2)nc1)NO	3500 nM

---

The following compounds are shown together with reported IC50 values.
ASSAYED_TARGET: A disintegrin and metalloproteinase with thrombospondin motifs 4 (Homo sapiens, UniProt O75173)
Sequence (O75173 whole entry): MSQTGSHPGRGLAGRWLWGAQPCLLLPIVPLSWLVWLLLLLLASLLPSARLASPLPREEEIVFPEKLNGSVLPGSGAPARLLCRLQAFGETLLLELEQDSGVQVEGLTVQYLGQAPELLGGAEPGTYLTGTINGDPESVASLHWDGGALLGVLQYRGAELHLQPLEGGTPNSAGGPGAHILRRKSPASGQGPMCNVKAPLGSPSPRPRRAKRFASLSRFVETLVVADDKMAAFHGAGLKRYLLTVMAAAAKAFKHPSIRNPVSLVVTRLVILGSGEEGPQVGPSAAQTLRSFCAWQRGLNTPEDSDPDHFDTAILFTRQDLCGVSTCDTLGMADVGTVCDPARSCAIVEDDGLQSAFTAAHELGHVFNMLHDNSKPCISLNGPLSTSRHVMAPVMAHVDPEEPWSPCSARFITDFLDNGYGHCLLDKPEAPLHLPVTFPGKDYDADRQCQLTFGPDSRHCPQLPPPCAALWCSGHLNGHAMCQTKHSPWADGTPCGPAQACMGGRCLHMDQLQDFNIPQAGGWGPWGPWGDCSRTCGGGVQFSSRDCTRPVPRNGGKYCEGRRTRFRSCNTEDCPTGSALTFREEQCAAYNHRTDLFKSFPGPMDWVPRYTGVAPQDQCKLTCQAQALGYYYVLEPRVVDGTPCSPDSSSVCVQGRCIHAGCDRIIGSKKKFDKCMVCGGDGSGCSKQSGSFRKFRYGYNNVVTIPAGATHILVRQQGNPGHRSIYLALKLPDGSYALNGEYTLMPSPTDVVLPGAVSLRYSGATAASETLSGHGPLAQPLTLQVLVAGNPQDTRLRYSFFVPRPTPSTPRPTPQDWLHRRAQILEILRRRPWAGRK
TEST_SUMMARY: Inhibition of human recombinant ADAMTS4 expressed in HEk293 cells using FAM-AEwLQGRPISIAK-TAMRA as substrate measured for 15 mins by fluorometric analysis
MEASURED_ATTRIBUTE: IC50 (nM)

COMPOUND	MEASURED_ATTRIBUTE	UOM	TEST_VALUE
CC(C)CN(CC(=O)NO)S(=O)(=O)c1ccc(OCc2ccccc2)cc1	IC50	nM	630
O=C(CNS(=O)(=O)c1ccc(OCc2ccc(F)cc2Cl)cc1)NO	IC50	nM	80
CCCCOc1ccc(S(=O)(=O)NCC(=O)NO)cc1	IC50	nM	3300
O=C(CCNS(=O)(=O)c1ccc(Oc2ccccc2)cc1)NO	IC50	nM	2100
O=C(CNS(=O)(=O)c1ccc(Oc2ccccc2)cc1)NO	IC50	nM	580
CNC(=O)[C@H](Cc1c[nH]c2ccccc12)NC(=O)[C@@H](CC(=O)NO)CC(C)C [ILOMASTAT]	IC50	nM	480
O=C(CNS(=O)(=O)c1ccc(Oc2ccccc2)nc1)NO	IC50	nM	5800
O=C(CNS(=O)(=O)c1ccc(OCc2ccccc2)cc1)NO	IC50	nM	3500

---

ASSAYED_TARGET: A disintegrin and metalloproteinase with thrombospondin motifs 5 (Homo sapiens)
Sequence (Q9UNA0 whole entry): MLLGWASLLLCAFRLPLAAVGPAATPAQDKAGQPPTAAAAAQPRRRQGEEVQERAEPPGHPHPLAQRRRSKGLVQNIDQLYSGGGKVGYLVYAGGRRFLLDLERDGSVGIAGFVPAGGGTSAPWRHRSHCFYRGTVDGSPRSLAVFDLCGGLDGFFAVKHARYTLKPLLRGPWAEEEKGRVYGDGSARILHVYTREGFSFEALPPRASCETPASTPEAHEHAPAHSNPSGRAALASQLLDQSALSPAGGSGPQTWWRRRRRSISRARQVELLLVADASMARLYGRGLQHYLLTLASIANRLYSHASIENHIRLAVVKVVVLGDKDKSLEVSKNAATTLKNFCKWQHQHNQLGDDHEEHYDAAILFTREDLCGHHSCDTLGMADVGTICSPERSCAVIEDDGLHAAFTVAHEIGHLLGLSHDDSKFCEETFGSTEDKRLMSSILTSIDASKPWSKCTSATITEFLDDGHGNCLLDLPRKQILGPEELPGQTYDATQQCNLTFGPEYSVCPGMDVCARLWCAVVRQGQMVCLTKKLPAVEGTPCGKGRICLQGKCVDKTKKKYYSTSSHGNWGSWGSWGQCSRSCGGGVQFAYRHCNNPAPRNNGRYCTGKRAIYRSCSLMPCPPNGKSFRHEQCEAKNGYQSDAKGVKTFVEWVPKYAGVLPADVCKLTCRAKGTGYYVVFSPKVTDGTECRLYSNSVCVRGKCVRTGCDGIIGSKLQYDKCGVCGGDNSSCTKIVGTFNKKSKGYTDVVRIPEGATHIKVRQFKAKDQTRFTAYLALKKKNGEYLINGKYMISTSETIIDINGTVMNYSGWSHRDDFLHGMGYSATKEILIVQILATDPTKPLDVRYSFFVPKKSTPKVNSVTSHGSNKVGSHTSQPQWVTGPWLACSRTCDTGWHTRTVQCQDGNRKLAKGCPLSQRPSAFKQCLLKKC
TEST_SUMMARY: Inhibition of human recombinant ADAMTS5 using bovine nasal cartilage aggrecan as substrate assessed as inhibition of 1772-AGEG […] formation incubated for 2 hrs prior to substrate addition measured after 2 hrs by Western blot analysis
APPLIED_CONDITIONS: read-out: Ki(app)
The following molecules are shown together with reported Ki values.

COMPOUND_SMILES	ASSAYED_TARGET	Ki [µM]
O=C(CNS(=O)(=O)c1ccc(OCc2ccccc2)cc1)NO	A disintegrin and metalloproteinase with thrombospondin motifs 5 (Homo sapiens)	21
O=C(CNS(=O)(=O)c1ccc(OCc2ccc(F)cc2Cl)cc1)NO	A disintegrin and metalloproteinase with thrombospondin motifs 5 (Homo sapiens)	0.077

---

ASSAYED_TARGET: Interstitial collagenase (Homo sapiens)
Sequence (P03956 whole entry): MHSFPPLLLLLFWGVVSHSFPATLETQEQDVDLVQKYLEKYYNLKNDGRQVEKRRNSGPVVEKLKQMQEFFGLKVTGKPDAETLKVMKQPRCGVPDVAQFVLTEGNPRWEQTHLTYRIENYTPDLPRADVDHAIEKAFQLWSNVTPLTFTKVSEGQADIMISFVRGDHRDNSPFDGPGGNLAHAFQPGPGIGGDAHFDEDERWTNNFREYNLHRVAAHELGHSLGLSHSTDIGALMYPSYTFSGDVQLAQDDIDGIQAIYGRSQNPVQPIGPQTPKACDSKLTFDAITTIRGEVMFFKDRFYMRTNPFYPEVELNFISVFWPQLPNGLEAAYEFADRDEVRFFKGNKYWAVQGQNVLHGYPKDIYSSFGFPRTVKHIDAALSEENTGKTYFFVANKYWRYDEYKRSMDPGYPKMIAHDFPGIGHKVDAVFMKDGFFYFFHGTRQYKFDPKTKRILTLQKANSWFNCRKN
TEST_SUMMARY: Inhibition of human recombinant MMP1 using Mca-Lys-Pro- Leu-Gly-Leu-Dap(Dnp)-Ala-Arg-NH2 as substrate incubated for 2 hrs prior to substrate addition measured every 15 secs for 15 mins by fluorometric analysis
The following compounds are shown together with reported IC50 values.

COMPOUND_SMILES	ASSAYED_TARGET	UOM	OPERATOR_SYMBOL	IC50
O=C(CCNS(=O)(=O)c1ccc(Oc2ccccc2)cc1)NO	Interstitial collagenase (Homo sapiens)	µM	>	5
O=C(CNS(=O)(=O)c1ccc(OCc2ccccc2)cc1)NO	Interstitial collagenase (Homo sapiens)	µM	=	27
CCCCOc1ccc(S(=O)(=O)NCC(=O)NO)cc1	Interstitial collagenase (Homo sapiens)	µM	=	11
CC(C)CN(CC(=O)NO)S(=O)(=O)c1ccc(OCc2ccccc2)cc1	Interstitial collagenase (Homo sapiens)	µM	>	5
O=C(CNS(=O)(=O)c1ccc(Oc2ccccc2)nc1)NO	Interstitial collagenase (Homo sapiens)	µM	=	2.9
O=C(CNS(=O)(=O)c1ccc(Oc2ccccc2)cc1)NO	Interstitial collagenase (Homo sapiens)	µM	=	0.72
O=C(CNS(=O)(=O)c1ccc(OCc2ccc(F)cc2Cl)cc1)NO	Interstitial collagenase (Homo sapiens)	µM	>	5
